- Protocol Details: Chemical stability in HEPES buffer assessed as compound isomerization at pH 7.0 to 7.5 for 24 hrs at 37 degC
- Format: physicochemical
- Measurement Context: read-out: Activity
Property Label: degraded at 24 h

Measured degraded at 24 h of `COc1cc(O)c2c(c1)CCC[C@H](O)[C@H](O)C(=O)/C=C\C[C@H](C)OC2=O` : < 1%
